Reported Average survival times (Days) values are given for each entry in this list.
- Tested on: Escherichia coli ATCC 25922
- assay.details: Oral formulations on mice with systemic bacterial infection
- Type: in vivo, ICR mice
- cond: 0.2 mg/kg gavage, three times a day for 7 days, observed for 14 d, n = 10
- Description: Both female and male ICR mice were used in the test, half of the female and male mice were taken and randomly assigned into groups, with 10 mice in each group, and kept in separate cages. The mice were divided into a blank control group, a negative control group, a positive control Levofloxacin group, and AMPs LV-1 to LV-30 groups. […] The death of mice in each group was observed, and survival time of the mice was recorded. […]
Marks after values point to notes of the source that are not given here. Non-standard residues stand in square brackets, D forms with d. Residues, ends and D or L forms follow the SMILES beside them. dPhe(3,4-F2) = N[C@H](Cc1ccc(F)c(F)c1)C(=O)O; d2Nal = N[C@H](Cc1ccc2ccccc2c1)C(=O)O; dNle = CCCC[C@@H](N)C(=O)O

For orientation, consider the following solved cases.
INSERT INTO assay_data (molecule, test_target, result) VALUES
  ('CC(=O)N[C@H](CCCCN)C(=O)N[C@H](CCCCN)C(=O)N[C@H](CC(C)C)C(=O)N[C@H](CC(C)C)C(=O)N[C@H](Cc1ccc2ccccc2c1)C(=O)N[C@H](CCCCN)C(=O)N[C@H](CC(C)C)C(=O)N[C@H](CCCCN)C(=O)N[C@H](Cc1ccc2ccccc2c1)C(=O)N[C@H](CCCCN)C(=O)N[C@H](CCCCN)C(N)=O [LV-17] (Ac-[dK][dK][dL][dL][d2Nal][dK][dL][dK][d2Nal][dK][dK]-NH2)', 'Escherichia coli ATCC 25922', '8.5** Days'),
  ('CC(=O)N[C@H](CCCNC(=N)N)C(=O)N[C@H](CCCCN)C(=O)N[C@H](CC(C)C)C(=O)N[C@H](CC(C)C)C(=O)N[C@H](Cc1ccc(F)c(F)c1)C(=O)N[C@H](CCCCN)C(=O)N[C@H](CC(C)C)C(=O)N[C@H](CCCCN)C(=O)N[C@H](Cc1ccc(F)c(F)c1)C(=O)N[C@H](CCCCN)C(=O)N[C@H](CCCNC(=N)N)C(N)=O [LV-6] (Ac-[dR][dK][dL][dL][dPhe(3,4-F2)][dK][dL][dK][dPhe(3,4-F2)][dK][dR]-NH2)', 'Escherichia coli ATCC 25922', '8.7** Days'),
  ('CCCC[C@@H](NC(=O)[C@@H](CCCCN)NC(=O)[C@@H](CCCNC(=N)N)NC(C)=O)C(=O)N[C@H](CCCC)C(=O)N[C@H](Cc1ccc2ccccc2c1)C(=O)N[C@H](CCCNC(=N)N)C(=O)N[C@H](CCCC)C(=O)N[C@H](CCCCN)C(=O)N[C@H](Cc1ccc2ccccc2c1)C(=O)N[C@H](CCCNC(=N)N)C(=O)N[C@H](CCCCN)C(N)=O [LV-12] (Ac-[dR][dK][dNle][dNle][d2Nal][dR][dNle][dK][d2Nal][dR][dK]-NH2)', 'Escherichia coli ATCC 25922', '8.9** Days');

Q. What measured Average survival times (Days) is associated with CC(=O)N[C@H](CCCNC(=N)N)C(=O)N[C@H](CCCCN)C(=O)N[C@H](CC(C)C)C(=O)N[C@H](CC(C)C)C(=O)N[C@H](Cc1ccccc1)C(=O)N[C@H](CCCNC(=N)N)C(=O)N[C@H](CC(C)C)C(=O)N[C@H](CCCCN)C(=O)N[C@H](Cc1ccccc1)C(=O)N[C@H](CCCNC(=N)N)C(=O)N[C@H](CCCCN)C(N)=O [LV-2] (Ac-[dR][dK][dL][dL][dF][dR][dL][dK][dF][dR][dK]-NH2) on Escherichia coli ATCC 25922?
A. 9.1** Days

Q. What measured Average survival times (Days) is associated with CC(=O)N[C@H](CCCCN)C(=O)N[C@H](CCCCN)C(=O)N[C@H](CC(C)C)C(=O)N[C@H](CC(C)C)C(=O)N[C@H](Cc1ccc(F)c(F)c1)C(=O)N[C@H](CCCNC(=N)N)C(=O)N[C@H](CC(C)C)C(=O)N[C@H](CCCCN)C(=O)N[C@H](Cc1ccc(F)c(F)c1)C(=O)N[C@H](CCCNC(=N)N)C(=O)N[C@H](CCCCN)C(N)=O [LV-25] (Ac-[dK][dK][dL][dL][dPhe(3,4-F2)][dR][dL][dK][dPhe(3,4-F2)][dR][dK]-NH2) on Escherichia coli ATCC 25922?
A. 8.5** Days

All figures here come from patent US20250304620A1.
